System: HCT-15
Overview of reported GI50 across a group of molecules:
Reply numerically in µM, unit not repeated.

Here's what some known entries look like.
Cc1cc2nc(N3C(=O)/C(=C/c4ccc(Oc5ccccc5)cc4)N=C3c3ccccc3)sc2cc1C: 29.4
COC(=O)c1cc(C)ccc1C1CN=NC12Cc1ccc(C)cc1C2=O (stereo not drawn): 40.1

[ask] Returns the measured GI50 for the input molecule. Input: N#CC1(C#N)NC(c2cccs2)C(C#N)(C#N)NC1c1cccs1 (stereo not drawn)
[reply] 30.7

[ask] And then `c1csc(-c2nccc3c2[nH]c2ccccc23)c1` , what is it?
[reply] 20.4

----------
System: MDA-MB-435
ASSAY TEXT: NCI tumour cell line growth inhibition, 48 h
Active and inactive are the calls of the source. Cut-off read from the data, not from the text of the source: active = GI50 up to about 1.1 µM and inactive = higher.
Overview of reported GI50 across a group of compounds:

Here's what some known entries look like.
CCCCC(O)(c1ccccc1)C(O)(c1ccccc1)c1c(F)c(F)c(F)c(F)c1F (stereo unspecified): 31.8 µM (inactive)
O=C1OC(c2ccccc2)=N/C1=C\c1cccc(F)c1: 75 µM (inactive)
COc1ccc2c(c1OC)OC[C@@H](C1=CC(=O)C=C(O)C1=O)C2: 8.61 µM (inactive)
C[N+]12CCCCC1C(COc1cccc3cccnc13)CCC2 (stereo unspecified): > 100 µM (inactive)
Cc1cc(S(=O)(=O)/N=C(\NN)NCC(=O)NN)c(S)cc1Cl: > 10 µM (inactive)
O=C(O)CSc1ccc([N+](=O)[O-])cc1[N+](=O)[O-]: > 100 µM (inactive)
O=C(c1ccco1)N(C(=O)N1CCCCC1)c1ccccc1: > 100 µM (inactive)
C=CCOC1OC(CS(=O)(=O)O)C(OC(C)=O)C(OC(C)=O)C1OC(C)=O (stereo unspecified): > 100 µM (inactive)

[ask] Returns the measured GI50 for the input compound. Input: `NC(=O)C1=C(c2ccccc2)c2ccccc2C1=O`
[reply] 26.1 µM (inactive)

[ask] And then `CCOC(=O)C1=C(C)NC(C)=C(C(=O)OCC)C1c1ccc(C)cc1` , what is it?
[reply] 35.4 µM (inactive)

[ask] And then C/C=C/[C@H]1O[C@@](O)([C@@H](C)[C@H](O)[C@H](C)[C@H]2OC(=O)/C(OC)=C/C(C)=C/[C@@H](C)[C@@H](O)[C@@H](CC)[C@@H](O)[C@H](C)C/C(C)=C/C=C/[C@@H]2OC)C[C@H](OC2CC(O)C(O)C(C)O2)[C@@H]1C (stereo partly specified) , what is it?
[reply] < 0.0075 µM (active)
